# assayTarget: human neutrophil elastase (HNE) (Homo sapiens)
# Sequence (P08246 30-247 limits assumed): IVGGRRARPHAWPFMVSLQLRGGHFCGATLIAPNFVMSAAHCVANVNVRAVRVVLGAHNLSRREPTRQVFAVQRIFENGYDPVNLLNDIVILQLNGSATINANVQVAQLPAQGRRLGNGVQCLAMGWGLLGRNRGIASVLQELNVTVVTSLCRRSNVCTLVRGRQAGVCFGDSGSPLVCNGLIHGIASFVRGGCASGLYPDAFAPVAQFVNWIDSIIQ
# assayName: Elastase Inhibition - Animal Model (acute hamster hemorrhage model)
# assayContext: 20 ug i.t. compound, 50 µg HNE i.t., hemorrhage in lung lavage after 18 hours
Give % Inhib. (20 ug. i.t.) for every item shown.
State the answer as a number, implicitly in %.

Lab book: % Inhib. (20 ug. i.t.) of CC(C)C(NC(=O)CN(C(=O)[C@@H](NC(=O)c1ccc(C(=O)NS(=O)(=O)c2ccc(Cl)cc2)cc1)C(C)C)C1CCCC1)C(=O)C(F)(F)F (single isomer, unassigned) [Cyclopentyl, p-[p-Cl(C6H4)SO2NHCO](C6H4)CO - (Diastereomer of Above)] noted as 99.0

Lab book: % Inhib. (20 ug. i.t.) of COc1ccc(CCN(CC(=O)NC(C(=O)C(F)(F)F)C(C)C)C(=O)[C@@H](NC(=O)c2ccc(C(=O)NS(=O)(=O)c3ccc(Cl)cc3)cc2)C(C)C)cc1OC (stereo partly shown) noted as 90.2

Lab book: % Inhib. (20 ug. i.t.) of CC(C)C(NC(=O)CN(C(=O)[C@@H](NC(=O)c1ccc(C(=O)NS(=O)(=O)c2ccc(Cl)cc2)cc1)C(C)C)C1CCCC1)C(=O)C(F)(F)F (single isomer, unassigned) noted as 99.2

Lab book: % Inhib. (20 ug. i.t.) of CC(C)C(NC(=O)CN(C(=O)[C@@H](NC(=O)c1ccc(C(=O)NS(=O)(=O)c2ccc(Cl)cc2)cc1)C(C)C)C1CC2CCC1C2)C(=O)C(F)(F)F (stereo partly shown) noted as 93.8
